# credit: patent US11142547B2

Recorded Number of spots produced by mutant polypeptide or each of its variants, one value per entry.
System: CD8+ T cells
protocolDetails: IFN-γ ELISPOT of CD8+ T cell immune response activated by polypeptide
Type: cell-based, human
measurementSetup: IFN-γ ELISPOT; T cells activated by the listed polypeptide, T2 cells loaded with mutant polypeptide
Lab note: record just the number, no unit beside it.

Recorded results for 3 sequences are shown here.
{"monomerSequence": "FMLGNLFFL", "value": 312}
{"monomerSequence": "FMLGNLFFV", "value": 316}
{"monomerSequence": "FLLGNLFFL", "value": 324}

Tell me measured Number of spots produced by mutant polypeptide or each of its variants for FLLGNLFFV please.
329

====

Test system: CD8+ T cells
protocolDetails: IFN-γ ELISPOT of CD8+ T cell immune response activated by polypeptide
Format: cell-based, human
measurementSetup: ratio >2 indicates immunogenicity
property: Ratio of mutant polypeptide to wild-type polypeptide (spots)

{"monomerSequence": "FMLGNLFFL", "value": 10.4}
{"monomerSequence": "FLLGNLFFV", "value": 9.97}
{"monomerSequence": "FMLGNLFFV", "value": 11.70}

Tell me measured Ratio of mutant polypeptide to wild-type polypeptide (spots) for FLLGNLFFL please.
9.23
